testTarget: EGFR WT (Homo sapiens)
Sequence (P00533 25-1210): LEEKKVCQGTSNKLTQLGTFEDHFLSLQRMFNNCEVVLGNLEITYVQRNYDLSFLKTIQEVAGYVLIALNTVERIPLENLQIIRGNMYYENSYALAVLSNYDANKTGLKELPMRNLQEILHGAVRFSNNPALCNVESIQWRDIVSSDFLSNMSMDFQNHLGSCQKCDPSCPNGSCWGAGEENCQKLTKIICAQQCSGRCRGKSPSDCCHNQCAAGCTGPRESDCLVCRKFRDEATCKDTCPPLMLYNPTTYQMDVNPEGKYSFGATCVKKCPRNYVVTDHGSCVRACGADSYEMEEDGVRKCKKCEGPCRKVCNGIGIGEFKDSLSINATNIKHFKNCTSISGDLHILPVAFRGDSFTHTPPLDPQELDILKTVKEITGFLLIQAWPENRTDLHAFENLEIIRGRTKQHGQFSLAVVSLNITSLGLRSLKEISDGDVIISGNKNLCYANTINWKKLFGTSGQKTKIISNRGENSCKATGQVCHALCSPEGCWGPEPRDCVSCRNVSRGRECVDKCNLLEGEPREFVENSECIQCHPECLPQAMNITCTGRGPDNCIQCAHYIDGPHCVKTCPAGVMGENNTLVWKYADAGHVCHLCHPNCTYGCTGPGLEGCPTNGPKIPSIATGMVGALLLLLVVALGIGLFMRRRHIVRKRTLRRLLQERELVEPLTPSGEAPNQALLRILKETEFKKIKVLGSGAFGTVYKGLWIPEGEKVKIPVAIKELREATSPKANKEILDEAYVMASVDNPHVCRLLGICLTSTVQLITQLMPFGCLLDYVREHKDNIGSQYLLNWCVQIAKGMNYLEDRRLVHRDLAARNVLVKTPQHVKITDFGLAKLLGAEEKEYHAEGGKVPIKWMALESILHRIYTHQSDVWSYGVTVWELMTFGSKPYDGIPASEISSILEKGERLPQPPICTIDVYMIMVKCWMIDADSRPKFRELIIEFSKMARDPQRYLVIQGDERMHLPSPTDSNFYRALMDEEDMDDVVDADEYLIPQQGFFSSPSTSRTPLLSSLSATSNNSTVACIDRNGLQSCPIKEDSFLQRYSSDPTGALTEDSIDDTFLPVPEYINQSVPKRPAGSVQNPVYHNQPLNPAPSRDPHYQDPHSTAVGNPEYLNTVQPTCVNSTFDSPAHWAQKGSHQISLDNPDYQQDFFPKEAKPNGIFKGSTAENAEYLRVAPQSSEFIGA
testDetails: HotSpot radiometric kinase assay, inhibition of EGFR WT
Type: biochemical
measurementConditions: 33P ATP, room temperature, 120 m
pIC50: −log10 of the molar value.
reportedProperty: pIC50

Some compounds with recorded pIC50:
>  <compoundStructureString>
Cc1nn(CCO)c2c1/C=C/c1n[nH]c3cnc(cc13)-c1c(C)nn(C)c1O[C@@H](C)CN(C(C)C)C2

>  <experimentalResult>
9.80

$$$$
>  <compoundStructureString>
CCN1Cc2c(c(C)nn2CCO)/C=C/c2n[nH]c3cnc(cc23)-c2c(C)nn(C)c2O[C@@H](C)C1

>  <experimentalResult>
10.30

$$$$
>  <compoundStructureString>
CCOc1nn([C@@H](C)CO)c2c1/C=C/c1n[nH]c3cnc(cc13)-c1c(C)nn(C)c1O[C@@H](C)CN(CC)C2

>  <experimentalResult>
9.10

$$$$

a: Cc1nn(C)c2c1-c1cc3c(n[nH]c3cn1)/C=C/c1c(OCC#N)nn(CCO)c1CN(C)C[C@H](C)O2
b: CCOc1nn([C@@H](C)CO)c2c1/C=C/c1n[nH]c3c(C)nc(cc13)-c1c(C)nn(C)c1O[C@H](C)[C@H]1CCCN1C2
c: CC(C)Oc1nn(CCO)c2c1/C=C/c1n[nH]c3cnc(cc13)-c1cnn(C)c1O[C@H](C)CN(C(C)C)C2
d: CCOc1nn(CCO)c2c1/C=C/c1n[nH]c3c(C)nc(cc13)-c1c(C)nn(C)c1O[C@@H](C)CN(C)C2
Sort the 4 compounds by pIC50; largest first, smallest last. A ranking is expressed here by listing the labels in the requested order.
b, d, a, c
(b: 10.30, d: 9.74, a: 9.39, c: 8.74)

---

testTarget: pEGFR, NCI-H1975 cells (L858R/T790M EGFR) (Homo sapiens, UniProt P00533, L858R/T790M)
Construct: pEGFR (Tyr1068) TR-FRET
Sequence (P00533 25-1210 T790M/L858R): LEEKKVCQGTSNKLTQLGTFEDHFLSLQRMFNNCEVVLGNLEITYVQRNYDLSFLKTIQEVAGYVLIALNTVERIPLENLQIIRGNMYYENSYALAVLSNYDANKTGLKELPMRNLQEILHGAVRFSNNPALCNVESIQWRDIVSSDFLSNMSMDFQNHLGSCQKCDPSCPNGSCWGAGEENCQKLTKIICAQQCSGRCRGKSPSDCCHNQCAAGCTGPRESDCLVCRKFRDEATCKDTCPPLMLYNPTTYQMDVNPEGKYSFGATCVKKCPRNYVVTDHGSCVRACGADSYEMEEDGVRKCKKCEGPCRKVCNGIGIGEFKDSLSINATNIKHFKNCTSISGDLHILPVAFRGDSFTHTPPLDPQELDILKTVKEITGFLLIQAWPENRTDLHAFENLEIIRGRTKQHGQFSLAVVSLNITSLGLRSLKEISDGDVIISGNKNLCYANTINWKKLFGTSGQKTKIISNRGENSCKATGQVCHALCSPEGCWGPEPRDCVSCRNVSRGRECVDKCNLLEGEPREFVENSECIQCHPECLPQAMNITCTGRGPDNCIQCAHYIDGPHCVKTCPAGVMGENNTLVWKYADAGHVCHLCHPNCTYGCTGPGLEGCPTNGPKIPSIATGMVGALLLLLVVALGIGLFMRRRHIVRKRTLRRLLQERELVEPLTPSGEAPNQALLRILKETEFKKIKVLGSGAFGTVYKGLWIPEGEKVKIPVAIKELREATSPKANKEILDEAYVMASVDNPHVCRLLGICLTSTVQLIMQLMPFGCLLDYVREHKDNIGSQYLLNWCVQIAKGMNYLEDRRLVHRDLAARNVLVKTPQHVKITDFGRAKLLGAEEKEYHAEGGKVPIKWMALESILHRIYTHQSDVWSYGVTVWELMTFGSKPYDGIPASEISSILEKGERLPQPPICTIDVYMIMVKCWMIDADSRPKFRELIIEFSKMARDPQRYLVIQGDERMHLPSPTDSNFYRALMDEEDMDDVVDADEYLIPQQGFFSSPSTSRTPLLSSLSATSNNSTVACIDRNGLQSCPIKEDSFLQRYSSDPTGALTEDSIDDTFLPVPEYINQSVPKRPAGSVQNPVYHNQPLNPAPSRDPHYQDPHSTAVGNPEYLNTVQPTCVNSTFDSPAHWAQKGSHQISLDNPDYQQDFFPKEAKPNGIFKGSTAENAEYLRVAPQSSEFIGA
testDetails: Cellular EGFR phosphorylation assay (LANCE Ultra TR-FRET) in NCI-H1975 cells
Type: cell-based
measurementConditions: 4 hours at 37° C., read-out: H1975 pEGFR IC50
pIC50: −log10 of the molar value.
reportedProperty: pIC50

Some molecules with recorded pIC50:
>  <compoundStructureString>
CCOc1nn([C@H](C)CO)c2c1/C=C/c1n[nH]c3c(C)nc(cc13)-c1c(C)nn(C)c1O[C@@H](C)CN(C)C2

>  <pIC50>
8.75

$$$$
>  <compoundStructureString>
Cc1nn(C)c2c1-c1cc3c(n[nH]c3cn1)/C=C/c1c(OCC#N)nn(CCO)c1CN(C)C[C@H](C)O2

>  <pIC50>
8.17

$$$$

1: CCOc1nn(CCO)c2c1/C=C/c1n[nH]c3cnc(cc13)-c1cnn(C)c1O[C@@H](C)CN(C(C)C)C2
2: CCOc1nn(CCO)c2c1/C=C/c1n[nH]c3cnc(cc13)-c1c(C)nn(C)c1OC[C@H](C)N(C(C)C)C2
Given the listed items, does 1 or 2 have the lesser reported pIC50? Identify your pick by its label.
1
(1: 8.28, 2: 8.87)

---

Tested on: BaF3 cells with engineered EGFR d746-750/T790M
testDetails: 3-Day CellTiter Glo (CTG) cell proliferation assay, BaF3 EGFR d746-750/T790M
Type: cell-based
measurementConditions: Mus musculus; BaF3 EGFR d746-750/T790M cells, 3-day CTG proliferation, 72 hours
reportedProperty: IC50 (nM)

Some molecules with recorded IC50:
>  <compoundStructureString>
CCOc1nn(CCO)c2c1/C=C/c1n[nH]c3cnc(cc13)-c1c(C)nn(C)c1O[C@H](C)CN(C(C)C)C2

>  <IC50 [nM]>
1.7

$$$$
>  <compoundStructureString>
CCOc1nn([C@H](C)CO)c2c1/C=C/c1n[nH]c3cnc(cc13)-c1c(C)nn(C)c1O[C@H](C)CN(C)C2

>  <IC50 [nM]>
43.3

$$$$

A: CCOc1nn(C[C@H](C)O)c2c1/C=C/c1n[nH]c3cnc(cc13)-c1c(C)nn(C)c1O[C@@H](C)CN(C)C2
B: Cc1nn(C)c2c1-c1cc3c(n[nH]c3cn1)/C=C/c1c(OCC#N)nn(CCO)c1CN(C)C[C@H](C)O2
I'd appreciate it if you could identify which of A and B has the greater IC50. Identify your pick by its label.
B

---

testTarget: pEGFR, NCI-H1975 cells (L858R/T790M EGFR) (Homo sapiens, UniProt P00533, L858R/T790M)
Construct: pEGFR (Tyr1068) TR-FRET
testDetails: Cellular EGFR phosphorylation assay (LANCE Ultra TR-FRET) in NCI-H1975 cells
Type: cell-based
measurementConditions: 4 hours at 37° C., read-out: H1975 pEGFR IC50
Protocol: Cellular EGFR Phosphorylation Assays EGFR phosphorylation assays were conducted in NSCLC cells with EGFR activation mutations. […] EGFR phosphorylation was measured using phospho-EGFR (Try1068) LANCE Ultra TR-FRET Detection Kit (TRF4015M) from PerkinElmer according to manufacturer's instructions. […] After 4-6 hours of incubation at room temperature, plates were then read on a TECAN Sparks multimode microplate reader. […]
pIC50: −log10 of the molar value.
reportedProperty: pIC50

Some compounds with recorded pIC50:
>  <compound>
Cc1nn(C)c2c1-c1cc3c(n[nH]c3cn1)/C=C/c1c(OCC#N)nn(CCO)c1CN1CCC[C@@H]1C(C)O2 (single isomer, unassigned) [Ex. 50]

>  <reportedProperty>
pIC50

>  <experimentalResult>
8.46

$$$$
>  <compound>
CCOc1nn(CCO)c2c1/C=C/c1n[nH]c3cnc(cc13)-c1c(C)nn(C)c1OC[C@H](C)N(CC)C2 [Ex. 16]

>  <reportedProperty>
pIC50

>  <experimentalResult>
8.28

$$$$
>  <compound>
CCOc1nn([C@@H](C)CO)c2c1/C=C/c1n[nH]c3cnc(cc13)-c1c(C)nn(C)c1OC[C@H](C)N(CC)C2 [Ex. 25]

>  <reportedProperty>
pIC50

>  <experimentalResult>
8.71

$$$$
>  <compound>
CCOc1nn(CCO)c2c1/C=C/c1n[nH]c3cnc(cc13)-c1c(C)nn(C)c1OC[C@@H](C)N(C1CC1)C2 [Ex. 114]

>  <reportedProperty>
pIC50

>  <experimentalResult>
8.25

$$$$

P: CCOc1nn(CCO)c2c1/C=C/c1n[nH]c3cnc(cc13)-c1c(C)nn(C)c1OCCN(C)C2 [Ex. 68]
Q: Cc1nn(C)c2c1/C=C/c1n[nH]c3c(C)nc(cc13)-c1c(C)nn(C)c1O[C@@H](C)CN(C(C)C)C2 [Ex. 106]
R: CCOc1nn([C@@H](C)CO)c2c1/C=C/c1n[nH]c3cnc(cc13)-c1c(C)nn(C)c1OC[C@H]1CCCN1C2 [Ex. 65]
Please produce an ascending ranking of these compounds based on pIC50. A ranking is expressed here by listing the labels in the requested order.
P, Q, R

---

testTarget: EGFR (L858R/T790M/C797S) (Homo sapiens, UniProt P00533, C797S/L858R/T790M)
Sequence (P00533 25-1210 T790M/C797S/L858R): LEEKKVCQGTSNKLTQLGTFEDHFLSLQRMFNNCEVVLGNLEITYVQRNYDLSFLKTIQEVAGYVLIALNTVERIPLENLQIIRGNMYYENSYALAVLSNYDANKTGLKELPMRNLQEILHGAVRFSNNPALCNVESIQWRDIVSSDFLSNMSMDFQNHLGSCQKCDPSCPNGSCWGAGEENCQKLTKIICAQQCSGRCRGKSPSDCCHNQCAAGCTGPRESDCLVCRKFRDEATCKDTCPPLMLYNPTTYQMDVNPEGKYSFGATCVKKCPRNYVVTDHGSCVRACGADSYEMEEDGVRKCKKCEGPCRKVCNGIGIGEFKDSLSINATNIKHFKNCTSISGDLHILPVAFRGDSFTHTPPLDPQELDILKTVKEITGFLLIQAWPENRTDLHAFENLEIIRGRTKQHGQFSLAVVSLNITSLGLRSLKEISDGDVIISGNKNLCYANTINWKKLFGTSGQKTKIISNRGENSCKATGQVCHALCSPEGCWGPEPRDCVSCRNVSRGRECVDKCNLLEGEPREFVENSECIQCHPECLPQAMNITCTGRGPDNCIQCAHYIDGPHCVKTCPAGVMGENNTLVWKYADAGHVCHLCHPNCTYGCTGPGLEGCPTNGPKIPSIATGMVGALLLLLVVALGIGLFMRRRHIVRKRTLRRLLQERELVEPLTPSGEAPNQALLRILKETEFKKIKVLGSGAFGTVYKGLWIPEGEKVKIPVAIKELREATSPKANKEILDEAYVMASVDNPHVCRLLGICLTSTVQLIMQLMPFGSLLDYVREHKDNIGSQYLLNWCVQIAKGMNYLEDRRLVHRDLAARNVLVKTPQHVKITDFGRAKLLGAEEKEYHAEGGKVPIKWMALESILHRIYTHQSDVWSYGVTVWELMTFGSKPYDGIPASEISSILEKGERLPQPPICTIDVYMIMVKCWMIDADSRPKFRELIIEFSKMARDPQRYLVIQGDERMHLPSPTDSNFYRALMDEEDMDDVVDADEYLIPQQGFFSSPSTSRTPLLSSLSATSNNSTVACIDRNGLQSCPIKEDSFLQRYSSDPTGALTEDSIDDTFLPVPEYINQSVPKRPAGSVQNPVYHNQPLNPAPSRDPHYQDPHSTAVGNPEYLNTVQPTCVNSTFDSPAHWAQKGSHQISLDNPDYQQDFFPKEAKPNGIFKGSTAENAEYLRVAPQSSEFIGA
testDetails: HotSpot radiometric kinase assay, inhibition of EGFR L858R/T790M/C797S mutant
measurementConditions: 33P ATP, room temperature, 120 m
reportedProperty: IC50 (nM)

>  <compoundStructureString>
Cc1nn(CCO)c2c1/C=C/c1n[nH]c3cnc(cc13)-c1c(C)nn(C)c1O[C@@H](C)CN(C(C)C)C2

>  <IC50 [nM]>
2.14

$$$$
>  <compoundStructureString>
CC(C)Oc1nn(CCO)c2c1/C=C/c1n[nH]c3cnc(cc13)-c1cnn(C)c1O[C@H](C)CN(C(C)C)C2

>  <IC50 [nM]>
0.85

$$$$
>  <compoundStructureString>
CCOc1nn(CCO)c2c1/C=C/c1n[nH]c3cnc(cc13)-c1cnn(C)c1O[C@H](C)CN(C(C)C)C2

>  <IC50 [nM]>
0.44

$$$$

A: CCOc1nn(CCO)c2c1/C=C/c1n[nH]c3cnc(cc13)-c1c(C)nn(C)c1OC[C@@H](C)N(CC)C2
B: CCN1Cc2c(c(OCC#N)nn2CCO)/C=C/c2n[nH]c3cnc(cc23)-c2c(C)nn(C)c2O[C@@H](C)C1
Given the listed items, does A or B have the lesser reported IC50? Identify your pick by its label.
B

---

testTarget: pEGFR, NCI-H1975 cells (L858R/T790M EGFR) (Homo sapiens, UniProt P00533, L858R/T790M)
Construct: pEGFR (Tyr1068) TR-FRET
testDetails: Cellular EGFR phosphorylation assay (LANCE Ultra TR-FRET) in NCI-H1975 cells
Type: cell-based
measurementConditions: 4 hours at 37° C., read-out: H1975 pEGFR IC50
reportedProperty: IC50 (nM)

Some compounds with recorded IC50:
>  <compoundStructureString>
CCN1Cc2c(c(OCC#N)nn2[C@@H](C)CO)/C=C/c2n[nH]c3cnc(cc23)-c2c(C)nn(C)c2O[C@@H](C)C1

>  <outputUnit>
nM

>  <IC50>
5.54

$$$$
>  <compoundStructureString>
CCOc1nn([C@@H](C)CO)c2c1/C=C/c1n[nH]c3c(C)nc(cc13)-c1c(C)nn(C)c1O[C@H](C)CN(C)C2

>  <outputUnit>
nM

>  <IC50>
1.9

$$$$

1: Cc1nn(C)c2c1-c1cc3c(n[nH]c3c(C)n1)/C=C/c1c(OCC#N)nn([C@@H](C)CO)c1CN(CC(F)F)C[C@H](C)O2
2: CCOc1nn(CCO)c2c1/C=C/c1n[nH]c3cnc(cc13)-c1c(cnn1C)OCCN(C)C2
I'd appreciate it if you could identify which of 1 and 2 has the greater IC50. Identify your pick by its label.
2
(2: 50.5 nM, 1: 3.24 nM)

P: Cc1nn(CCO)c2c1/C=C/c1n[nH]c3c(C)nc(cc13)-c1c(C)nn(C)c1O[C@@H](C)CN(C(C)C)C2
Q: CCOc1nn(CCO)c2c1/C=C/c1n[nH]c3cnc(cc13)-c1cnn(C)c1O[C@@H](C)CN(C1CC1)C2
Given the listed items, does P or Q have the lesser reported IC50? Identify your pick by its label.
P
